Assay: Permeability from apical to basolateral side in human Caco2 cells in presence of 1% BSA
Format: ADME, cell-based
Settings: Caco-2, read-out: permeability
Quantity: Papp A→B (×10⁻⁶ cm/s)
The answer is to be given in ×10⁻⁶ cm/s; state only the numeric part.

### Prompt May I ask what Papp A→B has been recorded for Cn1cc(-c2cnc3ccc(NC(=O)NCCc4ccccc4)nc3c2)cn1 ?
### Response 64

----------
Measurement record for Vascular endothelial growth factor receptor 2 (Homo sapiens, UniProt P35968); quantity recorded: IC50.

{"columns": ["Item smiles", "IC50"],
 "data": [
  ["Cn1cc(-c2cnc3ccc(NC(=O)NCCc4ccccc4)nc3c2)cn1", "> 100 µM"],
  ["Cn1cc(-c2cnc3ccc(NC(=O)Nc4ccccc4)nc3c2)cn1", "> 100 µM"]
]}

Okay, now this compound:
### Prompt May I ask what IC50 has been recorded for COc1cc(-c2cnc3ccc(NC(=O)NC(C)(C)C)nc3c2)ccc1O ?
### Response > 100 µM
